biological target: Schistosoma mansoni thioredoxin glutathione reductase (TGR) (UniProt Q962Y6); assay: qHTS Assay for the Inhibitors of Schistosoma Mansoni Peroxiredoxins; conditions: purified TGR, DTNB reduction, TNB absorbance 405 nm; series mostly up to 114 µM; note: nearly all actives have a fitted effect of over 60% in size
Screen size: about 360,000 compounds; about 11,000 (3.1%) were called active. Roughly 4% stayed inconclusive and do not appear here. Calls come from the whole dose curve; as a rule, active = well fitted inhibition curve with a large enough effect; inconclusive = small, poorly fitted or top-dose-only effect; inactive = no such curve, though single readings can be large or run the other way. Many of the other results were omitted from the sample, so actives are more common in it than they were.
Possible outcomes: active, inactive

molecule | class label
COc1ccc(C(=O)NN2C(=O)C3C(c4ccccc4)C=CC(c4ccccc4)C3C2=O)cc1 (configuration not stated) | inactive
CN(C)c1cccc(C(=O)Nc2nc3ccc(S(=O)(=O)NC(C)(C)C)cc3s2)c1 | inactive
CC(C)=C1C2CCC1C1C(=O)N(NC(=O)c3ccco3)C(=O)C21 (configuration not stated) | inactive
Cc1ccc(/C=C/C(=O)Nc2ccc([N+](=O)[O-])c(NC(=O)/C=C/c3ccc(C)o3)c2)o1 | active
COc1ccc(-n2c(C)nc3c(cnn3-c3ccc(F)cc3)c2=O)cc1 | inactive
COc1ccccc1C(=O)Nn1cnnc1 | inactive
COc1ccc(N2CCN(C(=O)c3c(C)oc4nc(C)nc(N5CCCC5)c34)CC2)cc1 | inactive
CSc1nc(-c2ccco2)nn1C(=O)c1ccccc1Cl | active
Cc1ccc(/C=C/C(=O)Nc2cc(S(=O)(=O)N3CCCCCC3)ccc2OCC(F)(F)F)o1 | inactive
COc1ccc(OC)c(NC(=O)C2CCN(S(=O)(=O)c3ccc(C)cc3)CC2)c1 | inactive
COc1ccc(N2CCN(c3cc(C)nc4nncn34)CC2)cc1 | inactive
CSc1nnc(NC(=O)c2nc(S(=O)(=O)Cc3ccc(C)cc3)ncc2Cl)s1 | active
Cc1cccc(CS(=O)(=O)c2ncc(Cl)c(C(=O)Nc3ccc(F)cc3)n2)c1 | active
COc1ccc(OC)c(NC(=O)Cc2cccs2)c1 | inactive
CCOc1cc(C(=O)Nc2nnc3n2CCS3)cc(OCC)c1OCC | inactive
Cc1cc(NC(=O)Nc2ccccc2[N+](=O)[O-])no1 | inactive
CNc1ccc(NC(C)=O)cc1[N+](=O)[O-] | inactive
Clc1ccc2c(c1)C1=C(C(c3ccncc3)O2)C(c2ccc(Br)cc2)n2ncnc2N1 (configuration not stated) | inactive
O=C(NN1C(=O)C2C3C=CC(C3)C2C1=O)c1ccco1 (configuration not stated) | inactive
O=C(NN1C(=O)C2C3C=CC(O3)C2C1=O)c1ccccc1 (configuration not stated) | active
Cc1ccc(NC(=O)c2nc(S(=O)(=O)Cc3cccc(C)c3)ncc2Cl)cc1 | active
COc1ccc(OC)c(NC(=O)/C=C/c2ccc(C)o2)c1 | active

====

target: Schistosoma mansoni thioredoxin glutathione reductase (TGR); experiment: qHTS Assay for the Inhibitors of Schistosoma Mansoni Peroxiredoxins; conditions: purified TGR, DTNB reduction, TNB absorbance 405 nm; series mostly up to 114 µM; note: nearly all actives have a fitted effect of over 60% in size; note: potency is the fitted concentration of half-maximal effect
Screen size: about 360,000 compounds; about 11,000 (3.1%) were called active. Inconclusive results (about 4%) are left out. The full list was thinned out, with actives kept by preference.

compound | Potency
Cc1c(Cl)cccc1NC(=O)N1CCN(C(=O)c2nsc3ccccc23)CC1 | inactive
COc1ccc(-n2ccn(CC(=O)Nc3ccc(C)c(C)c3)c(=O)c2=O)cc1OC | inactive
CCOc1cc(NS(=O)(=O)c2ccc(OC)cc2)c(OCC)cc1NC(C)=O | inactive
COC(=O)c1ccccc1NC(=O)c1ccc2c(=O)n3c(nc2c1)CCCCC3 | inactive
CCOc1cc(NC(=O)CCl)c(OCC)cc1NC(C)=O | 44.7 µM (active)
N#Cc1ccccc1S(=O)(=O)N1CCN(Cc2c(O)ccc3ccccc23)CC1 | 0.891 µM (active)
N#Cc1ccccc1S(=O)(=O)N1CCN(C(=O)c2cc(-c3ccccc3)nn2-c2ccccc2)CC1 | inactive
CCOc1cc(NC(=O)Nc2ccccc2)c(OCC)cc1NC(=O)CC | inactive
CC(=O)N1c2ccc(S(=O)(=O)N3CCCCCC3)cc2CC1C(=O)NCc1ccccc1C (stereo not given) | inactive
COc1cccc(C(=O)NC2(C(F)(F)F)C(=O)Nc3c2c(=O)[nH]c(=O)n3-c2ccc(C)cc2)c1 (stereo not given) | inactive
